- TESTED_TARGET: Promotilin (Homo sapiens, UniProt P12872)
pKi: −log10 of the molar value.
Field: class. Source value: pKi. Ranges: lower: < 7; middle: ≥ 7 and < 8; upper: ≥ 8

Task: The entry to classify is H-FVPIFTYGE-NH2 [[leu13]pMOT(1-9)] ; which class holds it?
Result: lower

Task: // repeat for H-FVPIFAYGELQRLQ-NH2 [[ala6,leu13]pMOT(1-14)] and report
Result: middle

Task: // repeat for H-FVPIATYGELQRLQ-NH2 [[ala5,leu13]pMOT(1-14)] and report
Result: middle

Task: // repeat for H-FVPIFTAGELQRLQ-NH2 [[ala7,leu13]pMOT(1-14)] and report
Result: lower

Task: // repeat for H-FVPAFTYGELQRLQ-NH2 [[ala4,leu13]pMOT(1-14)] and report
Result: lower

Task: // repeat for H-FVPIFTYGELQRLQEKERNKGQ-OH [[leu13]pMOT(1-22)] and report
Result: upper

Task: // repeat for H-FVPIFTYGEAQRLQ-NH2 [[ala10,leu13]pMOT(1-14)] and report
Result: upper
